Ref: patent US10604510B2

test: Solubility of Form A at 20° C. and 40° C.; assay type: physicochemical; details: organic solvent or mixture, thermodynamic from solid; Toluene/MeOH 7:3 v/v, 20° C.; clear solution with 10 vol of solvent mix
recordedEndpoint: solubility at 2 days

* CCCN(CCC)C(=O)C1=Cc2ccc(-c3ccc(C(=O)N4CCCC4)cc3)cc2N=C(N)C1 [Form A] | > 100 mg/mL

###

Experiment: Solubility of Form A at 20° C. and 40° C.
Format: physicochemical
Settings: organic solvent or mixture, thermodynamic from solid; THF/H2O 8:2 v/v, 20° C., stirred 2 days
Method: For purity estimation and determination of the solubility in solution a generic in-house HPLC method was used. HPLC was performed using a Phenomenex Luna 3 μm C18 (50×4.6 mm) column and detected with a DAD detector, recording at 214 nm. To develop a Form A crystallization, a series of solubility data points was collected (Table 5). An amount of up to 15 mg was suspended in 150 μL and the mixture stirred for 2 days. Solubility was then determined by HPLC or by calculation if a solution was observed.
recordedEndpoint: solubility at 2 days (mg/mL)

* CCCN(CCC)C(=O)C1=Cc2ccc(-c3ccc(C(=O)N4CCCC4)cc3)cc2N=C(N)C1 [Form A] | 38.6
